target: E-cNOS (Bos taurus, UniProt P29473); construct: the mixture was homogenized for 3 min to yield the crude enzyme sample of E-cNOS; endogenous in cells; host or cells: CPAE (cow pulmonary arterial endothelium cells), whole homogenate; test: Inhibition of E-cNOS, homogenate of cow pulmonary arterial endothelium cell (CPAE); conversion of L-[3H] arginine to L-[3H] citrulline; assay type: biochemical
ATTRIBUTE MEASURED: IC50 (nM)

{"columns": ["MOLECULE", "ATTRIBUTE MEASURED", "RESULT"],
 "data": [
  ["CCSC(=N)NCCC[C@H](N)C(=O)O [Example 2, δ-(S-ethylisothioureido)-L-norvaline]", "IC50", 492]
]}

* * *

molecular target: iNOS (Rattus norvegicus, UniProt Q06518); construct: a soluble cytosolic fraction of the finally obtained supernate was used as the crude enzyme sample of iNOS; from tissue; host or cells: lungs of LPS-treated rats, 100,000×g soluble cytosolic fraction; assay: Inhibition of iNOS, soluble fraction of lungs of LPS-treated rats; conversion of L-[3H] arginine to L-[3H] citrulline; format: biochemical
Sequence (Q06518 whole entry): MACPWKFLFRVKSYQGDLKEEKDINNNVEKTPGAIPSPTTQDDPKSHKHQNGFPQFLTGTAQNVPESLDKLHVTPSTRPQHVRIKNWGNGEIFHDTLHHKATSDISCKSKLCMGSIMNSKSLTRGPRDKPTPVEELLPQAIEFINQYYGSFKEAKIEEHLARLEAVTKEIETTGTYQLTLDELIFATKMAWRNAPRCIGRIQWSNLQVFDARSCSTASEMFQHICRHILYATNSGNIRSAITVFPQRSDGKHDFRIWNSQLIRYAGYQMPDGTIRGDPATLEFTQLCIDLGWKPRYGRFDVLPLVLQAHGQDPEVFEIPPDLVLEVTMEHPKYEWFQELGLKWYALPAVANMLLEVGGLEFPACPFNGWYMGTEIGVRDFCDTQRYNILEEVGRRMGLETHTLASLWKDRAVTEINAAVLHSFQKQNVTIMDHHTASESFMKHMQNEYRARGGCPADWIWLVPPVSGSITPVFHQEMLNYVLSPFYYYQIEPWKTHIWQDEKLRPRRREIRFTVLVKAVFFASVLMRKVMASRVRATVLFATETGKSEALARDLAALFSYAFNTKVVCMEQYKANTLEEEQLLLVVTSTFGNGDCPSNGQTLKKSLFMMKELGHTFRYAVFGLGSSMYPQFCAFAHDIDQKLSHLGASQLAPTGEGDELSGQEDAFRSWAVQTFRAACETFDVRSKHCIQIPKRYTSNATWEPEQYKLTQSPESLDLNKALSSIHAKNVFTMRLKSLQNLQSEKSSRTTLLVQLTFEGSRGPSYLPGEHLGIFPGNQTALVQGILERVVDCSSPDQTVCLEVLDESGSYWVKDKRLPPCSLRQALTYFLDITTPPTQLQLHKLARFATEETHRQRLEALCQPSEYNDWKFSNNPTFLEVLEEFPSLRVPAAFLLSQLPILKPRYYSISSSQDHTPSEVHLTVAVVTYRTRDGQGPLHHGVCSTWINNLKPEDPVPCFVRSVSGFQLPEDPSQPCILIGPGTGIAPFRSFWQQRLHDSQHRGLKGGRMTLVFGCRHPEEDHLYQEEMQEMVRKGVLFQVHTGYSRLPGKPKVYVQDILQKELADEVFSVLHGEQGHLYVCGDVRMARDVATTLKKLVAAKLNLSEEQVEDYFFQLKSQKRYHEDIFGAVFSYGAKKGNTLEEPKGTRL
pIC50: −log10 of the molar value.

{"columns": ["MOLECULE", "pIC50"],
 "data": [
  ["N=C(N)NN [AG, aminoguanidine, reference compound]", 4.57]
]}

* * *

biological target: N-cNOS (Rattus norvegicus); construct: a soluble cytosolic fraction of the finally obtained supernate was used as the crude enzyme sample of N-cNOS; from tissue; host or cells: cerebral cortex of normal untreated male SD rats, 100,000×g soluble cytosolic fraction; assay: biochemical; conditions: index of selectivity, N-cNOS vs E-cNOS
Sequence (P29476 whole entry): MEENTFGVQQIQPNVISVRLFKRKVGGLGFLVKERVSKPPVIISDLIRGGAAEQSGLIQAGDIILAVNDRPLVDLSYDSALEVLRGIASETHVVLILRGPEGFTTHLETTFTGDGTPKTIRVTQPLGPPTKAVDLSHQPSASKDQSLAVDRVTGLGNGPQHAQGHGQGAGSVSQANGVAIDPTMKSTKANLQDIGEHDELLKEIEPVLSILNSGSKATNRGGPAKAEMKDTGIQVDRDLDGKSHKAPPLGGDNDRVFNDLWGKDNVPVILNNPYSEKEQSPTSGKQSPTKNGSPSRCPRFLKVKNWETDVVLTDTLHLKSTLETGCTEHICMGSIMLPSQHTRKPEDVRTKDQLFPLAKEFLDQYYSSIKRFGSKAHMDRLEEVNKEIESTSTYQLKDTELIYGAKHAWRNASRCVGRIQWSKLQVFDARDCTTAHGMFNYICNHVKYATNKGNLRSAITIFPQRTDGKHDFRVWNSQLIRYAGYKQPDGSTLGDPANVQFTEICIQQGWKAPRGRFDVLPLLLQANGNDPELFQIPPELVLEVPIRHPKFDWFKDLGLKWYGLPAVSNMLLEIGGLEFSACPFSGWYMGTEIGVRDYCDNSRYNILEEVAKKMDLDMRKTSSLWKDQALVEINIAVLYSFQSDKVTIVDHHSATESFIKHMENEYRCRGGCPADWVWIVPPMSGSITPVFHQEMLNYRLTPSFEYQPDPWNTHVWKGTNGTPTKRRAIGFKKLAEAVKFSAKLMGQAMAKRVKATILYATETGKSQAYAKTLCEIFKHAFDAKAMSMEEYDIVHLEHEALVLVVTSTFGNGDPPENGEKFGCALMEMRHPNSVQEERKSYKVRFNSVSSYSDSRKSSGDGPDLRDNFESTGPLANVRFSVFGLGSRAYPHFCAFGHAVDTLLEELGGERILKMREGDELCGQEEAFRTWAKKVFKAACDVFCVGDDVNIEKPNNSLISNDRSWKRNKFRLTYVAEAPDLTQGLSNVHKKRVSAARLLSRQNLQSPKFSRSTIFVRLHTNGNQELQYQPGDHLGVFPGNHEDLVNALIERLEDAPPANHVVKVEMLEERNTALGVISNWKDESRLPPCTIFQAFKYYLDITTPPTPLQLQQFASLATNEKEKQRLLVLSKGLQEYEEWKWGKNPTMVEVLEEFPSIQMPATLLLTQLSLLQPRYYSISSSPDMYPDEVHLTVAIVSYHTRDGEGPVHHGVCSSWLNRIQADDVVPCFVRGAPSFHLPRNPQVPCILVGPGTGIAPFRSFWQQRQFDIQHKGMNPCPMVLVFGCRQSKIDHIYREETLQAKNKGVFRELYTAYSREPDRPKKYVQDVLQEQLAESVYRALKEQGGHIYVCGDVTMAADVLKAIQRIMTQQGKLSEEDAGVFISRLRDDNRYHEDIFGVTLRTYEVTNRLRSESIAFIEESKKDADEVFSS
Where a name gives a salt, the structure may show the parent alone.

{"columns": ["MOLECULE", "Ratio of I50 values E-cNOS/N-cNOS"],
 "data": [
  ["CCCSC(=N)NCCC[C@H](N)C(=O)O [Example 12]", 9.3],
  ["CSC(=N)NCCCC[C@H](N)C(=O)O.Cl.Cl [Example 10]", 5.1],
  ["C=CCNC(=N)NCCC[C@H](N)C(=O)O [L-ALA, N^G -allyl-L-arginine, reference compound]", 15.2],
  ["Cl.Cl.N=C(NCCC[C@H](N)C(=O)O)SCCF [Example 4]", 124.9],
  ["N[C@@H](CCCNC1=NCCS1)C(=O)O [Example 8, dihydrochloride]", 5.9],
  ["C=CCSC(=N)NCCC[C@H](N)C(=O)O.Cl.Cl [Example 6]", 10.4]
]}

Values were extracted from patent US6124351A.
